These data points were gathered from ChEMBL document CHEMBL1134322.

- ASSAY TARGET: Proto-oncogene tyrosine-protein kinase Src (Homo sapiens, UniProt P12931)
- Sequence (P12931 2-536 limits assumed): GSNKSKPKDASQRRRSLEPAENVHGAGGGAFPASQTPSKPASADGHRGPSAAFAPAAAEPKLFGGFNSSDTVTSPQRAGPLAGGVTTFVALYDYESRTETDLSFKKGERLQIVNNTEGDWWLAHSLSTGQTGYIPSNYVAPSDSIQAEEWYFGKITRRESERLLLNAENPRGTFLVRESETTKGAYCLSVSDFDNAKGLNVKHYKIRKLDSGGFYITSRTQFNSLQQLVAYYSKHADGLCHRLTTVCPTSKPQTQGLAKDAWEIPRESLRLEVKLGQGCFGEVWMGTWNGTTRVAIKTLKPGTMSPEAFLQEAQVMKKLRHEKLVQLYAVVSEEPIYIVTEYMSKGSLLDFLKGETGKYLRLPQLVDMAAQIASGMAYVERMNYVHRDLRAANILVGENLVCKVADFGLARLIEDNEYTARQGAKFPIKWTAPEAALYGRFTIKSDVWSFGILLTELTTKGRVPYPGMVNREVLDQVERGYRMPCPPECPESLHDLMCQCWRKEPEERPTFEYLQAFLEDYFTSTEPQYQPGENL
pIC50: −log10 of the molar value.
MEASUREMENT TYPE: pIC50

Report pIC50 for O=C(Nc1ccccn1)Nc1cccc2c1[C@H]1CCCN1C2=O tested on Proto-oncogene tyrosine-protein kinase Src (Homo sapiens, UniProt P12931). < 5.30
